Measured IC50 of individual entries
# TEST SYSTEM: T1, gp130-Fc fusion protein (human, UniProt P40189 23-619)
# T1 construct: extracellular domain; not shown: Fc fragment of human IgG1
# T1 sequence (looked up): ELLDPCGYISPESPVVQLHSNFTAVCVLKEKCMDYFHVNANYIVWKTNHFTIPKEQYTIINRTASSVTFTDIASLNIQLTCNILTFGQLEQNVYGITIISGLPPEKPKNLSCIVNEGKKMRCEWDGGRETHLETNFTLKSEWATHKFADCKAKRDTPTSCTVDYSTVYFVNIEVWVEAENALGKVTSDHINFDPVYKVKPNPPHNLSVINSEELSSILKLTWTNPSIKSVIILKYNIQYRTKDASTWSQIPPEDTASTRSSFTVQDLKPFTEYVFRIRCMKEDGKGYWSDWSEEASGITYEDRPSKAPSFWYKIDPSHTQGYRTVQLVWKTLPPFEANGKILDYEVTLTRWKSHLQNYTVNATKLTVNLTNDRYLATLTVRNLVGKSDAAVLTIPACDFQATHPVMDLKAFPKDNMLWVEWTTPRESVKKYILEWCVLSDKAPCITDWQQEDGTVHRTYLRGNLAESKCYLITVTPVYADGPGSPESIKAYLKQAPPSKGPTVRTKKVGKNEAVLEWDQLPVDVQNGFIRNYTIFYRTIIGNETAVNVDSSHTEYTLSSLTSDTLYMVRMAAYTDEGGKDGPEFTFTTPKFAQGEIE
# TEST: competition ELISA: OSM-GST titrated against plate-bound wt OSM for gp130-Fc; mean
METRIC NAME: IC50

binder="OSM-GST mutant N123A (ligand, not shown: a dimerising Fc or GST; large carriers; small tags and cut ends, Alanine mutant of m4; also called (22)N123A; 22 N123A) AAIGSCSKEYRVLLGQLQKQTDLMQDTSRLLDPYIRIQGLDVPKLREHCRERPGAFPSEETLRGLGRRGFLQTLNATLGCVLHRLADLEQRLPKAQDLERSGLNIEDLEKLQMARPNILGLRANIYCMAQLLDNSDTAEPTKAGRGASQPPTPTPASDAFQRKLEGCRFLHGYHRFMHSVGRVFSKWGESPNRSRR" value_measured="2.96 µg/mL"
binder="OSM-GST mutant E9A (ligand, not shown: a dimerising Fc or GST; large carriers; small tags and cut ends, Alanine mutant of m4; also called (3)E9A; 3 E9A) AAIGSCSKAYRVLLGQLQKQTDLMQDTSRLLDPYIRIQGLDVPKLREHCRERPGAFPSEETLRGLGRRGFLQTLNATLGCVLHRLADLEQRLPKAQDLERSGLNIEDLEKLQMARPNILGLRNNIYCMAQLLDNSDTAEPTKAGRGASQPPTPTPASDAFQRKLEGCRFLHGYHRFMHSVGRVFSKWGESPNRSRR" value_measured="0.156 µg/mL"
binder="OSM-GST mutant L119A (ligand, not shown: a dimerising Fc or GST; large carriers; small tags and cut ends, Alanine mutant of m4; also called (19)L119A; 19 L119A) AAIGSCSKEYRVLLGQLQKQTDLMQDTSRLLDPYIRIQGLDVPKLREHCRERPGAFPSEETLRGLGRRGFLQTLNATLGCVLHRLADLEQRLPKAQDLERSGLNIEDLEKLQMARPNIAGLRNNIYCMAQLLDNSDTAEPTKAGRGASQPPTPTPASDAFQRKLEGCRFLHGYHRFMHSVGRVFSKWGESPNRSRR" value_measured="0.255 µg/mL"
binder="OSM-GST mutant S7A (ligand, not shown: a dimerising Fc or GST; large carriers; small tags and cut ends, Alanine mutant of m4; also called (1)S7A; 1 S7A) AAIGSCAKEYRVLLGQLQKQTDLMQDTSRLLDPYIRIQGLDVPKLREHCRERPGAFPSEETLRGLGRRGFLQTLNATLGCVLHRLADLEQRLPKAQDLERSGLNIEDLEKLQMARPNILGLRNNIYCMAQLLDNSDTAEPTKAGRGASQPPTPTPASDAFQRKLEGCRFLHGYHRFMHSVGRVFSKWGESPNRSRR" value_measured="0.133 µg/mL"
